The measurements presented in this section are drawn from ChEMBL document CHEMBL1152210.

test system: Artemia salina; test: Toxicity in Artemia salina after 24 hrs by serial dilution method; type: organism-based; conditions: in vivo
reportedProperty: LC100 (ppm)
The reply should be a number in ppm, with the unit left off.

query: Form field: reported LC100 of `COc1cccc2oc(=O)ccc12`
result: 20

query: Form field: reported LC100 of `C/C1=C\C[C@@H]2C[C@@H](C[C@]3(CC[C@H](C)[C@@H](C)O3)O2)OC(=O)[C@@H]2CC[C@@H](O)[C@H]3OC/C(=C\C=C\[C@H](C)C1)[C@]32O`
result: 0.6

query: Form field: reported LC100 of `CCCCCCCCCc1cccc(O)c1`
result: 1.3

query: Form field: reported LC100 of `CCCCCCCCCCCc1cccc(O)c1`
result: 1.3

query: Form field: reported LC100 of `COc1ccc2ccc(=O)oc2c1`
result: 80

* * *

Listed here: items and their measured LC50.
test system: Oryzias latipes; experiment: Toxicity in Oryzias latipes after 24 hrs by serial dilution method; format: organism-based; settings: in vivo
The reply should be a number in ppm, with the unit left off.

Study these solved cases before continuing.
C/C1=C\C[C@@H]2C[C@@H](C[C@]3(CC[C@H](C)[C@@H](C)O3)O2)OC(=O)[C@@H]2CC[C@@H](O)[C@H]3OC/C(=C\C=C\[C@H](C)C1)[C@]32O [MILBEMECTIN] ... 0.06
O=c1ccc2ccccc2o1 [COUMARIN] ... 38
CCOc1cccc2oc(=O)ccc12 ... 75

With those in mind, consider the next compound.
query: Form field: reported LC50 of `CCCCCCCCCc1cccc(O)c1`
result: 7.5

* * *

tested on: Oryzias latipes; assay: Toxicity in Oryzias latipes after 24 hrs by serial dilution method; type: organism-based; details: in vivo
Listed here: items and their measured LC50.
The reply should be a number in ppm, with the unit left off.

CCCCCCCCCCCc1cccc(O)c1 ... 3.8
COc1cccc2oc(=O)ccc12 ... 38

query: Param readout = LC50; param system = Oryzias latipes; param query = `COc1cccc2ccc(=O)oc12` ; response: value
result: 100

query: Param readout = LC50; param system = Oryzias latipes; param query = `COc1ccc2oc(=O)ccc2c1` ; response: value
result: 75

query: Param readout = LC50; param system = Oryzias latipes; param query = `COc1cc(=O)oc2ccccc12` ; response: value
result: 75

* * *

system: Oryzias latipes; test: Toxicity in Oryzias latipes after 24 hrs by serial dilution method; type: organism-based; details: in vivo
Listed here: items and their measured LC100.
The reply should be a number in ppm, with the unit left off.

COc1ccc2ccc(=O)oc2c1 ... 75

query: Param readout = LC100; param system = Oryzias latipes; param query = `COc1cccc2oc(=O)ccc12` ; response: value
result: 50

query: Param readout = LC100; param system = Oryzias latipes; param query = `CCOc1cccc2oc(=O)ccc12` ; response: value
result: 100

query: Param readout = LC100; param system = Oryzias latipes; param query = `COc1ccc2oc(=O)ccc2c1` ; response: value
result: 100

* * *

tested on: Oryzias latipes; test: Toxicity in Oryzias latipes after 24 hrs by serial dilution method; format: organism-based; settings: in vivo
Listed here: items and their measured LC100.

COc1cc2ccccc2oc1=O ... > 100 ppm
C/C1=C\C[C@@H]2C[C@@H](C[C@]3(CC[C@H](C)[C@@H](C)O3)O2)OC(=O)[C@@H]2CC[C@@H](O)[C@H]3OC/C(=C\C=C\[C@H](C)C1)[C@]32O ... 0.25 ppm

query: Form field: reported LC100 of `O=c1ccc2ccccc2o1`
result: 50 ppm
